# System Tested: human IDO1 (Homo sapiens, UniProt P14902)
# Sequence (P14902 whole entry): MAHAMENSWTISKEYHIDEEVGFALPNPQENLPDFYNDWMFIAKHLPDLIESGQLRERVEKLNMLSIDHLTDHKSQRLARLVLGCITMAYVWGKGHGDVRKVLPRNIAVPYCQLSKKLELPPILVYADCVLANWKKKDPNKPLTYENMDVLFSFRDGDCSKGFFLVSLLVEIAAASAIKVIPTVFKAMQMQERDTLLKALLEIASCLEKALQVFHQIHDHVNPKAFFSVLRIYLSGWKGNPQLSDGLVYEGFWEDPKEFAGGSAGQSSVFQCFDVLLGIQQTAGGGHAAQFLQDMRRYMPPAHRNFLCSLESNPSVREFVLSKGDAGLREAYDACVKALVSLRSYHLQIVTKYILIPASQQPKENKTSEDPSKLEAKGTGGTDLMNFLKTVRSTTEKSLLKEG
# Assay Details: Assessment of human IDO-1 inhibitory activity in HEK cells (human IDO1/HEK293 cells, kynurenine read-out with Ehrlich reagent, absorbance 490 nm)
# Format: cell-based
# Parameters: expressed in transfected cells
# Condition Summary: HEK Human IDO-1 cellular assay
pIC50: −log10 of the molar value.
Reported pIC50 values for the following compounds.

Solved cases (5 shown):
>>> measured_value("CCc1ccc(Nc2cc(C(CC)CC(=O)O)ccc2N2CCC[C@H]2C(C)(C)O)cc1 (single isomer, unassigned) [Example 819]")
"< 7.30"
>>> measured_value("CCC(CC(=O)O)c1cc(NC(=O)Nc2ccc(C)cc2)c(N(CC(C)C)C2CCCCC2)cc1F (single isomer, unassigned) [Example 1106]")
"> 8.30"
>>> measured_value("CCC(CC(=O)O)c1ccc(N2CCC[C@H]2C(C)(C)F)c(Nc2ccc3c(c2)OC(F)(F)O3)c1 (single isomer, unassigned) [Example 796]")
"< 7.30"
>>> measured_value("CCC(CC(=O)O)c1ccc(N(CC2CC2)C(C)C)c(Nc2ccc3c(c2)OC(F)(F)O3)c1 (single isomer, unassigned) [Example 715]")
"> 7.30"
>>> measured_value("COc1ncc(Nc2cc(C(C)CC(=O)O)ccc2N2C[C@@H](C)O[C@@H](C)C2)cn1 (single isomer, unassigned) [Example 741]")
"< 7.30"

Would you kindly look at the next entry?
input: What measured pIC50 goes with CCOc1ccc(Nc2cc(C(CC)CC(=O)O)ccc2N(CC(C)C)C2CCCCC2)cc1 (single isomer, unassigned) [Example 313] ?
output: > 8.30

###

# System Tested: human IDO1 (Homo sapiens, UniProt P14902)
# Assay Details: Assessment of human IDO-1 inhibitory activity in HEK cells (human IDO1/HEK293 cells, kynurenine read-out with Ehrlich reagent, absorbance 490 nm)
# Assay type: cell-based
# Set-up: expressed in transfected cells
# Condition Summary: HEK Human IDO-1 cellular assay
# Experimental: Exemplary compounds were tested for inhibition of IDO activity. Assessment of Human IDO-1 Inhibitory Activity in HEK Cells HEK293 cells were transfected with a pCDNA-based mammalian expression vector harboring human IDO1 cDNA (NM 002164.2) by electroporation. […] The compound treatments were stopped by adding trichloroacetic acid (Sigma-Aldrich) to a final concentration at 0.2%. […] The absorbance at 490 nm was measured on Envision plate reader. […]
pIC50: −log10 of the molar value.
Quantity Measured: pIC50

>>> measured_value("CCC(CC(=O)O)c1cc(F)c(N(CC(C)C)CC(C)C)c(Nc2ccc(OCC(F)(F)F)cc2)c1 (single isomer, unassigned) [Example 98]")
"< 7.30"
>>> measured_value("CCOc1ncc(Nc2cc(C(C)(C)CC(=O)O)ccc2N2C[C@@H](C)O[C@@H](C)C2)cn1 [Example 736]")
"< 7.30"

input: Quick one: pIC50 for CCCN(c1ccc([C@@H](CC)CC(=O)O)cc1Nc1ccc2c(c1)OC(F)(F)O2)C1CCOCC1 (single isomer, unassigned) [Example 539] ?
output: > 8.30

input: Need pIC50 of CCOc1ccc(NC(=O)Nc2cc(C(CC)CC(=O)O)c(F)cc2N(CC(C)C)CC(C)C)c(F)c1 (racemic) [Example 1137] , thanks.
output: > 8.30

input: Can you look up the measured pIC50 of CCN(c1ccc([C@H](COC)CC(=O)O)cc1NC(=O)Nc1cc(C)no1)C1CCOCC1 (single isomer, unassigned) [Example 440] for me?
output: < 7.30
